Biological target: T1, TCE-29 (anti-CD3 scFv N236A; anti-TROP2 wt)
T1 construct: scFv on the Fab heavy chain
Experiment: competition ELISA, TCE on captured CD3
Where no end group is shown, it is not given here.
Measure name: IC50

VYCGPEFDESVGCA (cysteine pairing not given here; also: biotinylated, site not given here, mask peptide for the CD3 scFv) [Peptide-73] yielded IC50 of 230 nM
